- subject of test: CK1α (casein kinase Iα) (Homo sapiens, UniProt P48729)
- Sequence (P48729 2-337): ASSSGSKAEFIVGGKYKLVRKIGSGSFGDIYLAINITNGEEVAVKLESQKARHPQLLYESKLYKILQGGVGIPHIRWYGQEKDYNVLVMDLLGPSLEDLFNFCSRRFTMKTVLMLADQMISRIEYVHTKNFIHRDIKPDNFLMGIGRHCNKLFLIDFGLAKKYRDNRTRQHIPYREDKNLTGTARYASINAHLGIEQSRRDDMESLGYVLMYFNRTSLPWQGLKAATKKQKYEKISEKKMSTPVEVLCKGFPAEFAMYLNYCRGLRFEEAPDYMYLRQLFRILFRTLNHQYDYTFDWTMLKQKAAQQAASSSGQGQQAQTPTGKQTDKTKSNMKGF
observable: pIC50
The quantity pIC50 is defined as the negative base-10 logarithm of the molar concentration.

Quick check: pIC50 on CK1α (casein kinase Iα) (Homo sapiens, UniProt P48729), item `CCCCCc1cc(/C=C2/N=C(c3ccc[nH]3)C=C2OC)[nH]c1C` ?
5.22

Reference source for all entries: paper PMC3191281
